Tested on: IGROV-1
method-description: Inhibition of cells growth by colorimetric assay (SRB)
condition: Homo sapiens, IGROV-1, 48 h, read-out: TGI IGROV
Threshold-based label: IC (TGI) under 1000 nM gives Satisfied, IC (TGI) not under 1000 nM gives Not satisfied.

Please review the entries below; each comes with its answer.
COC1=C(C)C(=O)C2=C(C1=O)[C@@H]1C3[C@@H]4SC[C@]5(NCCc6c5[nH]c5ccccc65)C(=O)OC[C@@H](c5c6c(c(C)c(OC(C)=O)c54)OCO6)N3[C@@H](C#N)[C@H](C2)N1C (stereo partly shown)    Satisfied
C=CCN1[C@@H]2c3c(cc(C)c(OC)c3O)C[C@H]1[C@H](C#N)N1C2[C@@H]2SC[C@H](NC(=O)c3cc4ccccc4oc3=O)C(=O)OC[C@H]1c1c3c(c(C)c(OC(C)=O)c12)OCO3 (stereo partly shown)    Satisfied
C=CCN1[C@@H]2c3c(cc(C)c(OC)c3O)C[C@H]1[C@H](C#N)N1C2[C@@H]2SCC(N)C(=O)OC[C@H]1c1c3c(c(C)c(OC(C)=O)c12)OCO3 (stereo partly shown)    Satisfied
COc1c(C)cc2c(c1O)[C@H]1N[C@@H](C2)[C@H](C#N)N2C1[C@@H]1SCC(NC(C)=O)C(=O)OC[C@H]2c2c3c(c(C)c(OC(C)=O)c21)OCO3 (stereo partly shown)    Satisfied
C=CCN1[C@@H]2c3c(cc(C)c(OC)c3O)C[C@H]1[C@H](C#N)N1C2[C@@H]2SCC(NC(=O)C(F)(F)F)C(=O)OC[C@H]1c1c3c(c(C)c(OC(C)=O)c12)OCO3 (stereo partly shown)    Not satisfied

Query string: Check if IC (TGI) falls below 1000 nM for C=CCOc1c(C)c2c(c3c1CC1[C@H]4c5c(cc(C)c(OC)c5O)C[C@@H]([C@H](C#N)N1[C@H]3CN)N4C)OCO2 (stereo partly shown) .
Result string: Not satisfied

Query string: What about CCCCCCCCCCCCCCCC(=O)NC1CS[C@@H]2c3c(OC(C)=O)c(C)c4c(c3[C@H](COC1=O)N1C2[C@@H]2N[C@@H](Cc3cc(C)c(OC)c(O)c32)[C@@H]1C#N)OCO4 (stereo partly shown) ?
Result string: Not satisfied
